Target: SCRIB_2, Q14160
Sequence (Q14160 857-960): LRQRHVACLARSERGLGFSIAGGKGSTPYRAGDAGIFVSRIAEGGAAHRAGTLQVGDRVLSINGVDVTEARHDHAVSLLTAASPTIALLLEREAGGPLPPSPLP
Assay: holdup assay
Design: key: below the threshold = too weak to quantify, mostly under pKd 3.1 to 4
Settings: plain residues with an end cap or a label only (N-terminal biotin on a linker: ado-ado)
measuredMetric: pKd

Fill in pKd for record TNSRHGETTV [FZD2, Q14332]
4.42

Fill in pKd for record DGVNEKVSCV [HTR2A, P28223]
3.64

Fill in pKd for record QLSFNTDTLC [ABCA2, Q9BZC7]
below the threshold

Fill in pKd for record EKCGKEFSEF [PRKACA, P17612]
below the threshold

More entries:
Fill in pKd for record GEDRSPPTAL [MKNK1, Q9BUB5]
below the threshold

Fill in pKd for record SFISKKEWYV [NECTIN1, Q15223]
below the threshold

Fill in pKd for record ARGPPRESEV [FAM110D, Q8TAY7]
4.9

Fill in pKd for record NIAESLESLV [PTPRZ1, P23471]
3.66

Fill in pKd for record KSRVAFFEEL [NF2, P35240;P35240-1]
below the threshold

Fill in pKd for record ILRKSTTTTV [PRR16, Q569H4]
below the threshold

Fill in pKd for record PYPTADHMLA [JUP, P14923]
below the threshold

Fill in pKd for record NVYGIESVKI [GRIA2, P42262]
3.49

Fill in pKd for record ARESQKVSHV [FAM110B, Q8TC76]
below the threshold
